- study system: Glycine N-methyltransferase (Homo sapiens) (UniProt Q14749)
- Sequence (Q14749 whole entry, looked up): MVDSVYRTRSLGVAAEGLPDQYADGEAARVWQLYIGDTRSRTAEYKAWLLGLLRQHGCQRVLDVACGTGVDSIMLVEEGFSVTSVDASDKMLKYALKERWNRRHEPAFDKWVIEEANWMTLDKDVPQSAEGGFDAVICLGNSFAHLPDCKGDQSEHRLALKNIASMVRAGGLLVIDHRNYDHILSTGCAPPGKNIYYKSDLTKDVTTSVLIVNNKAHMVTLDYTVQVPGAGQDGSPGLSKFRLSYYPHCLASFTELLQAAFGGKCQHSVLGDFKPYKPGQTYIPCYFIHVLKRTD
- assay overview: Primary Screen for Target Class Profiling of Small Molecule Inhibitors of Methyltransferases; also: % is scaled to controls: 0 for no effect and ±100 for the full control effect
- measurement conditions: purified enzyme, MTase-Glo SAH luminescence; measured here: GNMT inhibition; at 40 µM; stronger effect = lower value
- Procedure: PI: Matthew D. Hall Ph.D. and Quinlin M. Hanson Ph.D. National Center for Advancing Translational Sciences (NCATS) National Institute of Health (NIH), Rockville, MD […] High-through put screening assays were developed at the National Center for Advancing Translational Science (NCATS) for the enzymes NNMT, PNMT, HNMT, GNMT, COMT, and GAMT. Enzymatic activity was measured as a function of SAM cofactor conversion using the MTase Glo kit (Promega) for all enzymes. […]
The campaign covered roughly 25,000 compounds. About 970 (3.9%) were called active. Roughly 8% stayed inconclusive and do not appear here. For the sample, actives were picked, then their nearest neighbours and some compounds at random.
value kind: activity change, negative = inhibition (%)
Answers are plain numbers, in %.

molecule	study system	unit	activity change, negative = inhibition
CN(Cc1cc(C2CC2)n[nH]1)C(=O)C(c1ccc(F)cc1)N(C)C (stereo unspecified)	Glycine N-methyltransferase (Homo sapiens) (UniProt Q14749)	%	1.91
CCc1cccc(NC(=O)Cn2c(=O)oc3cc(S(=O)(=O)N4CCC(C)CC4)ccc32)c1	Glycine N-methyltransferase (Homo sapiens) (UniProt Q14749)	%	-4.13
CC(C)Cn1c(=O)c2ccccc2n2c(=O)n(Cc3ccccc3Cl)nc12	Glycine N-methyltransferase (Homo sapiens) (UniProt Q14749)	%	2.72
O=C1NC(=NC2CCCC2)C2(CCCN([S+](=O)([O-])c3ccccc3)C2)N1c1cccnc1 (stereo unspecified)	Glycine N-methyltransferase (Homo sapiens) (UniProt Q14749)	%	-3.99
CCCCOc1ccc(CNC(=O)c2cc3n(n2)CC(C)(C(=O)NCc2ccccc2)N(C)C3=O)cc1 (stereo unspecified)	Glycine N-methyltransferase (Homo sapiens) (UniProt Q14749)	%	8.47
Cn1nccc1C(=O)NC1CCCN(c2cc(N3CCCC3)ncn2)C1 (stereo unspecified)	Glycine N-methyltransferase (Homo sapiens) (UniProt Q14749)	%	-8.51

For every listed record, write down its activity change, negative = inhibition.
1. O=C(N[C@@H]1CN(c2ccncn2)C[C@H]1CO)C1CCCC1
2. C=Cc1ccc(Cn2nc3n(CC(C)C)c(=O)c4ccc(C(=O)NC(C)CC)cc4n3c2=O)cc1 (stereo unspecified)
3. COc1ccccc1CN[C@H]1[C@H](O)[C@@H](N2CCN(c3ccccc3OC)CC2)[C@@H]2OC[C@H]1O2
4. COC(=O)C(C)C1CCC2(C)C(=O)C=CC(C)(O)C2C1O (stereo unspecified)
5. CCCS(=O)(=O)N1CCCC(Cc2noc(-c3cnccn3)n2)C1 (stereo unspecified)

Reply:
1: -3.56; 2: 4.48; 3: -1.49; 4: 0.317; 5: -4

###

- study system: Guanidinoacetate N-methyltransferase (Homo sapiens) (UniProt Q14353)
- assay overview: Primary Screen for Target Class Profiling of Small Molecule Inhibitors of Methyltransferases; also: % is scaled to controls: 0 for no effect and ±100 for the full control effect
- measurement conditions: purified enzyme, MTase-Glo SAH luminescence; measured here: GAMT inhibition; at 40 µM; stronger effect = lower value
About 970 (3.9%) of roughly 25,000 compounds were called active. Roughly 8% stayed inconclusive and do not appear here. The list comes from a sample in which actives are over-represented; it also holds close analogues and randomly drawn compounds.
Please respond with reported activity change, negative = inhibition for every item in the list.
Numbers only, in %.

Answered cases to consult:
compound	observed measurement
CCOc1ccc(N2C(=O)c3cc(-c4ccc(OC)cc4)nn3CC2(C)C(=O)NCc2ccccc2OC)cc1 (centres undefined)	4.82
O=C(N[C@@H]1CN(c2ccncn2)C[C@H]1CO)C1CCCC1	-4.46
CC1(C=O)CC[C@]2(C(=O)O[C@@H]3O[C@H](CO)[C@@H](O)[C@H](O)[C@H]3O)CC[C@]3(C)C(=CCC4[C@@]5(C)C[C@H](O)[C@H](O[C@@H]6OC[C@@H](O)[C@H](O)[C@H]6O)[C@@](C)(CO)C5CC[C@]43C)C2C1 (some centres undefined)	-3.55
COc1ccc(C(=O)N2CCN(C(=O)N3CC4CC(C3)[C@H]3CCCC(=O)N3C4)CC2)c(OC)n1 (some centres undefined)	0.955
Cc1cnc(-c2ccncc2)n1CCN	-7.5
COCCN1CC2(CCC1=O)CCN(C(=O)[C@@H]1C[C@@H](O)CN1)CC2	-1.32
Cn1nccc1C(=O)NC1CCCN(c2cc(N3CCCC3)ncn2)C1 (centres undefined)	-10.5
Cc1cnc(-c2ccccc2)n1CCNC(=O)CCC1CCCC1	-6.61

--- query ---
Lab note: measured activity change, negative = inhibition of Cc1cc(Nc2cc(CN3CCOCC3)c3nc(C)c(Cc4ccc(Cl)cc4F)n3n2)n[nH]1 was -49
